# Tested on: SNB-19 CNS
# method: NCI tumour cell line growth inhibition, 48 h; in the data active = GI50 below about 0.43 µM; inactive = the rest
In this exercise, the only acceptable responses are yes (1) (active), no (0) (inactive)

Example cases with answers are listed next.
Hi, do you know how O=c1[nH]c2c3ccncc3cc(-c3cccc(Cl)c3)c2c2cnccc12 came out in this test?
no (0)

Hi, do you know how COC(=O)[C@@H](C)C[C@H](Cc1ccccc1)NC(=O)c1nc([C@@H](C[C@H](C(C)C)N(C)C(=O)[C@@H](NC(=O)[C@H]2CCCCN2C)C(C)C)OC(C)=O)sc1C(C)C came out in this test?
yes (1)

Hi, do you know how O=c1c2[nH]ccc2nc2n1CCS2 came out in this test?
no (0)

Hi, do you know how CCOC(=O)C#Cc1c(C(=O)OCC)nnn1Cc1ccc(C(F)(F)F)cc1 came out in this test?
no (0)

Hi, do you know how Cc1oc2nc[nH]c(=O)c2c1C(=O)/C=C/c1ccc(Br)cc1 came out in this test?
no (0)

Hi, do you know how O=C(Nc1ccc(-n2ccc3c(NC(=O)c4ccccc4)ncnc32)cc1)c1ccc(Cl)c(C(F)(F)F)c1 came out in this test?
no (0)

Hi, do you know how CNCCC/C=C1\c2cc3c(cc2-c2c1c1cc(OC)c(OC)cc1c(=O)n2C)OCO3 came out in this test?
no (0)

Hi, do you know how Cc1ccc(/C(=C/C=C(/C#N)C(N)=O)Sc2ncnn2C)cc1 came out in this test?
no (0)

Alright, here's another compound for you.
Hi, do you know how CC(C)=C[C@@H]1C[C@H](C)[C@H]2CC[C@H](C)c3c(O)c(OC4OCC(O)C(O)C4O)c(C)c1c32 (some centres undefined) came out in this test?
no (0)

* * *

# Tested on: K-562 leukemia
# method: NCI tumour cell line growth inhibition, 48 h
Parameter TGI: see the listing below.
A number alone suffices; assume µM.

Observe how each entry below is paired with its result.
For reference, reported TGI for C=C1C(=O)O[C@H]2[C@H]1CC/C(COC(=O)NCc1c[nH]c3ccc(Br)cc13)=C\CC[C@@]1(C)O[C@@H]21 stands at 1.53

For reference, reported TGI for CNC[C@@H](NC(=O)c1ccc(-c2nc([C@H]3CC[C@H](O)[C@@H](F)C3)cnc2N)cc1F)c1cc(F)cc(Br)c1 stands at 38.2

Next compound, please.
For reference, reported TGI for O=C1C=C(Nc2cccnc2)c2ccccc2C1=O stands at 22.7

* * *

# System: A498 renal
# method: NCI tumour cell line growth inhibition, 48 h
Parameter TGI: see the listing below.

For reference, reported TGI for O=C(C1CC1)N1CC[C@@H](Cc2n[nH]c(=O)n2-c2ccc(-c3ccc4occc4c3)cc2)C1 stands at > 85.4 µM

Others:
For reference, reported TGI for COc1ccc(OC)c(CCc2cc(OC)ccc2OC)c1 stands at > 10 µM

For reference, reported TGI for NC(Cc1cnc(I)[nH]1)C(=O)O (stereo unspecified) stands at > 100 µM

For reference, reported TGI for C=C(C)C12OC3(c4ccccc4)OC1C1C4OC4(CO)C(O)C4(O)C(=O)C(C)=CC4C1(O3)C(C)C2OC(=O)/C=C/C=C/c1ccccc1 (stereo unspecified) stands at 0.183 µM

For reference, reported TGI for CC(=O)c1cccc(NC(=O)C(=O)C(C(=O)NN)c2ccccc2)c1 (stereo unspecified) stands at > 100 µM

For reference, reported TGI for Cc1c(Cl)ccc2c1NC(=O)C2(O)CC(=O)c1cccc2ccccc12 (stereo unspecified) stands at > 100 µM

For reference, reported TGI for CC12C=C[C@]3(CC[C@@H]4[C@@](C)(CO)CCC[C@]4(C)C3CC1)C2 (stereo partly specified) stands at 37.7 µM

For reference, reported TGI for Cc1cn(C2OC(CO)C(O)C2O)c(=O)[nH]c1=O (stereo unspecified) stands at > 1000 µM

For reference, reported TGI for O=C1OC(CC(=O)c2ccc(Cl)cc2)C(Cl)=C1Cl (stereo unspecified) stands at > 100 µM

For reference, reported TGI for Cc1ccc(/C(=C/C=C(/C#N)C(N)=O)Sc2ncnn2C)cc1 stands at 3.4 µM

For reference, reported TGI for CNc1nc(N)cc(=O)[nH]1 stands at > 100 µM

* * *

# Tested on: SF-268 CNS
# method: NCI tumour cell line growth inhibition, 48 h
reported metric: TGI (µM)
A number alone suffices; assume µM.

For reference, reported TGI for C=C1C(=O)O[C@H]2[C@H]1CC/C(COC(=O)NCc1c[nH]c3ccc(Br)cc13)=C\CC[C@@]1(C)O[C@@H]21 stands at 3.41

For reference, reported TGI for S=C1Cc2cc3ccccc3nc2-c2ccccc2N1 stands at 91.6

For reference, reported TGI for COC(=O)CNC(=O)CCSc1nnc(COc2ccc(Cl)cc2)n1-c1ccccc1 stands at 48.5

For reference, reported TGI for CC(C)S(=O)(=O)ON1C(=O)c2ccc(N(C)C)cc2C1=O stands at 66.8

* * *

# Tested on: IGROV1 ovarian
# method: NCI tumour cell line growth inhibition, 48 h
Parameter TGI: see the listing below.

For reference, reported TGI for COC(=O)C(C)(C)NC(=O)C(Cc1ccccc1)Nc1ncnc2c1ncn2-c1ccc(OC)cc1 (stereo not drawn) stands at > 100 µM

For reference, reported TGI for CC(=O)c1cccc(NC(=O)C(=O)C(C(=O)NN)c2ccccc2)c1 (stereo not drawn) stands at > 100 µM

For reference, reported TGI for COc1ccc(CCCNC(=O)Cc2ccccc2CO)cc1OC stands at > 100 µM

Others:
For reference, reported TGI for CC(C)S(=O)(=O)ON1C(=O)c2ccc(N(C)C)cc2C1=O stands at 43 µM

For reference, reported TGI for CCOC(=O)C#Cc1c(C(=O)OCC)nnn1Cc1ccc(C(F)(F)F)cc1 stands at 30.8 µM

For reference, reported TGI for CC(=O)O[C@H]1C(=O)[C@@]2(C)[C@H]([C@H](OC(=O)C3CCCCC3)[C@]3(O)C[C@H](OC(=O)[C@H](O)[C@@H](NC(=O)OC(C)(C)C)c4ccccc4)C(C)=C1C3(C)C)[C@]1(OC(C)=O)CO[C@@H]1C[C@@H]2O stands at > 12.5 µM

For reference, reported TGI for Nc1nc2c(ncn2C2C=CC(COS(N)(=O)=O)C2)c(=O)[nH]1 (stereo not drawn) stands at > 100 µM

* * *

# Tested on: MDA-MB-231 breast
# method: NCI tumour cell line growth inhibition, 48 h
Parameter log10(TGI): see the listing below.
log10 TGI, µM

Observe how each entry below is paired with its result.
For reference, reported log10(TGI) for CNC[C@@H](NC(=O)c1ccc(-c2nc([C@H]3CC[C@H](O)[C@@H](F)C3)cnc2N)cc1F)c1cc(F)cc(Br)c1 stands at 1.44

For reference, reported log10(TGI) for COc1ccc(N2C(=O)C3c4[nH]c5c(C)cccc5c4C4CCC(c5ccccc5)CC4C3C2=O)cc1 (centres undefined) stands at 1.89

For reference, reported log10(TGI) for COc1cccc(-n2ncc3c(N/N=C/c4cccc(F)c4)ncnc32)c1 stands at 1.19

For reference, reported log10(TGI) for Nc1nc(CCl)nc(N2CCOCC2)n1 stands at 1.90

For reference, reported log10(TGI) for CC1CN=C(c2cccc(-c3ccc(-c4ccccc4)o3)c2)N1 (centres undefined) stands at 0.65

Others:
For reference, reported log10(TGI) for COC(=O)[C@]12CC[C@@H](C(=O)/C=C/c3cccnc3)[C@@H]1[C@H]1CC[C@@H]3[C@@]4(C)C/C(=C/c5cccnc5)C(=O)C(C)(C)[C@@H]4CC[C@@]3(C)[C@]1(C)CC2 stands at -0.29

* * *

# Tested on: XF 498 CNS
# method: NCI tumour cell line growth inhibition, 48 h
reported metric: TGI

For reference, reported TGI for COC(=O)C12OCC34C(CC5C(C)=C(O)C(=O)CC5(C)C3C(O)C1O)OC(=O)C(OC(=O)C=C(C)C)C24 (stereo unspecified) stands at > 476 µM

For reference, reported TGI for O=C1c2ccccc2OCC1/C=N/O (stereo unspecified) stands at > 100 µM

For reference, reported TGI for Cc1cccc(-c2cc(=O)c3cc(C)c(C)c(C(=O)O)c3o2)c1 stands at > 100 µM

For reference, reported TGI for CCN(CC)c1c(C)c(C(=O)OC)nn1-c1ccccc1 stands at > 100 µM

For reference, reported TGI for Cn1c2c(c3ccccc31)CCN(CCCN1CCN(c3cccc(Cl)c3)CC1)C2=O stands at 27.6 µM

For reference, reported TGI for O=C(O)c1ccccc1NS(=O)(=O)c1ccc([N+](=O)[O-])cc1 stands at > 100 µM

* * *

# Tested on: CCRF-CEM leukemia
# method: NCI tumour cell line growth inhibition, 48 h; in the data active = GI50 below about 0.43 µM; inactive = the rest
In this exercise, the only acceptable responses are YES (active), NO (inactive)

Example cases with answers are listed next.
Hi, do you know how COC(=O)[C@@H](C)C[C@H](Cc1ccccc1)NC(=O)c1nc([C@@H](C[C@H](C(C)C)N(C)C(=O)[C@@H](NC(=O)[C@H]2CCCCN2C)C(C)C)OC(C)=O)sc1C(C)C came out in this test?
YES

Hi, do you know how NC(=O)c1cc(Cl)ccc1NC(=O)COc1ccccc1 came out in this test?
NO

Others:
Hi, do you know how Nc1cc2ccccc2c(O)c1O came out in this test?
NO

Hi, do you know how COc1ccc2c(c1)C(=O)c1c-2c(=O)n(CCCCCCC(=O)NO)c2ccccc12 came out in this test?
YES

Hi, do you know how CCOC(=O)C#Cc1c(C(=O)OCC)nnn1Cc1ccc(C(F)(F)F)cc1 came out in this test?
NO

Hi, do you know how CN1CCN(Cc2ccc(NC(=O)c3cncc(C#Cc4cnc5ccc(Cl)nn45)c3)cc2C(F)(F)F)CC1 came out in this test?
NO

Hi, do you know how c1ccc(-c2cccc(-c3ccccn3)n2)nc1 came out in this test?
YES

Hi, do you know how C=C(C)[C@@H]1CC[C@]2(C)[C@H](CC[C@@H]3[C@@H]([C@@](C)(O)CCC=C(C)C)CC[C@]32C)[C@@]1(C)CCC(=O)N1CCN(C)CC1 came out in this test?
NO

Hi, do you know how CCC(C)C1=NC(C(=O)N/C=C\c2c[nH]c3cc(Br)c(Br)cc23)(C(C)C)NC1=O (stereo not given) came out in this test?
NO

Hi, do you know how N=C(N)c1ccc(-c2ccc(-c3cccs3)o2)cc1 came out in this test?
NO
